Molecular target: GRID2IP_2, A4D2P6
Sequence (A4D2P6 272-370): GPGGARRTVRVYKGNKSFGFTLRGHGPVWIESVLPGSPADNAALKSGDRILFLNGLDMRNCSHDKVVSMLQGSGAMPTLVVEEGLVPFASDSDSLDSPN
Experiment: holdup assay
Set-up: key: below the threshold = too weak to quantify, mostly under pKd 3.1 to 4
Details: plain residues with an end cap or a label only (N-terminal biotin on a linker: ahx)
assay.metric: pKd
Output: the number by itself.

RRRKRKRTYL [HPV49-L2, P36762] :: 5.11

// moving on: another record for pKd
Value of pKd reported for the binder GYDWGPATDL [TJP3, O95049] is 4.47

# credit: paper PMC9482650
